Values from PubChem BioAssay (EPA / NIEHS)

Read-out: CD38, CD38 (gene 952)
Assay: BSK_SAg_CD38: BioMAP Diversity Plus: SAg Assay for CD38 Biomarker Activity (AID 2283087)
Settings: primary human HUVEC with PBMC; actives raise or lower the signal
Active and inactive are the calls of the source. Rule for the calls: active = hit-call score of the fitted dose curve at least 0.9, where 1 is the maximum; inactive = score below 0.9.
value_type: AC50

Before answering, review these 4 worked examples.
- compound: "COP(=S)(OC)Oc1ccc(SC)c(C)c1"
  AC50: "inactive"
- compound: "CC(C)N(C(=O)COc1nnc(C(F)(F)F)s1)c1ccc(F)cc1"
  AC50: "inactive"
- compound: "Clc1ccccc1-c1nnc(-c2ccccc2Cl)nn1"
  AC50: "inactive"
- compound: "CCOCN(C(=O)CCl)c1c(C)cccc1CC"
  AC50: "27 µM (active)"

Now for a further compound.
Supply recorded AC50 for "CCOc1nc(NC)nc(NC(=O)NS(=O)(=O)c2ccccc2C(=O)OC)n1" here.
inactive

====

Molecular target: human CYP19A1, CYP19A1 (gene 1588)
Assay: NVS_ADME_hCYP19A1: NovaScreen (NVS) CYP450-related Enzyme Activity (ADME) Assay for human CYP19A1 (AID 2283098)
Inconclusive results are not listed. Active and inactive are the calls of the source. The calls were made as follows: active = hit-call score of the fitted dose curve at least 0.9, where 1 is the maximum; inconclusive = response in the unintended direction; inactive = score below 0.9.
Outcomes you can answer with include only these: active, inactive

What call does the record list for "CCCN(CCOc1c(Cl)cc(Cl)cc1Cl)C(=O)n1ccnc1" ?
active

Look up the recorded call for "COP(=O)(OC)OC=C(Cl)Cl" in this test.
inactive

Could you check what this test reported for CC1(C)C(C=C(Cl)Cl)C1C(=O)OC(C#N)c1ccc(F)c(Oc2ccccc2)c1 (centres undefined) ?
inactive

What call does the record list for "COc1nn(CSP(=S)(OC)OC)c(=O)s1" ?
active

Hi team, can someone confirm the assay call for CC(C)(C)C(O)/C(=C\c1ccc(Cl)cc1Cl)n1cncn1 (centres undefined) ?
active

Recorded test call requested for "O=[N+]([O-])c1c(Cl)c(Cl)c(Cl)c(Cl)c1Cl"
inactive

I would be grateful if you could indicate the recorded call for "O=C(O)C(F)(F)C(F)(F)C(F)(F)C(F)(F)C(F)(F)C(F)(F)C(F)(F)F" .
inactive

Dear all, I need the recorded test outcome for "CNC(=O)CSP(=S)(OC)OC" , thank you.
inactive

Record lookup: outcome of this test for CC[C@H](C)[C@H]1O[C@]2(C=C[C@@H]1C)C[C@@H]1C[C@@H](C/C=C(\C)[C@@H](O[C@H]3C[C@H](OC)[C@@H](O[C@H]4C[C@H](OC)[C@@H](O)[C@H](C)O4)[C@H](C)O3)[C@@H](C)/C=C/C=C3\CO[C@@H]4[C@H](O)C(C)=C[C@@H](C(=O)O1)[C@]34O)O2 (tested in a mixture with another compound) ?
inactive

====

Assay: CEETOX_H295R_MTT_cell_viability: Viability Assessment in the CeeTox HT-H295R MTT Assay (AID 2283718)
Calls of active or inactive are those of the source. The calls were made as follows: active = hit-call score of the fitted dose curve at least 0.9, where 1 is the maximum; inactive = score below 0.9.
Response enum: true = active, false = inactive

// return assay outcome for CC[C@H](C)[C@H]1O[C@]2(C=C[C@@H]1C)C[C@@H]1C[C@@H](C/C=C(\C)[C@@H](O[C@H]3C[C@H](OC)[C@@H](O[C@H]4C[C@H](OC)[C@@H](O)[C@H](C)O4)[C@H](C)O3)[C@@H](C)/C=C/C=C3\CO[C@@H]4[C@H](O)C(C)=C[C@@H](C(=O)O1)[C@]34O)O2 (tested in a mixture with another compound)
false

Hi, do you know how "CC(C)N(C(=O)COc1nnc(C(F)(F)F)s1)c1ccc(F)cc1" came out in this test?
false

Assay outcome for "C[C@H]1[C@H](c2ccc(Cl)cc2)SC(=O)N1C(=O)NC1CCCCC1" : what was it?
true

What did this assay record as the result for "CNC(=O)CSP(=S)(OC)OC" ?
false

Identify the outcome logged in this assay for the compound shown: "CNC(=O)/C=C(\C)OP(=O)(OC)OC"
false

What did this assay record as the result for O=C(NC(=O)c1c(F)cccc1F)Nc1ccc(OC(F)(F)C(F)OC(F)(F)F)c(Cl)c1 (configuration not stated) ?
true

State the result this test recorded for "O=C(O)COc1ccc(Cl)cc1Cl" .
false

====

System: rat CYP2C6, gene 293989
Test: NVS_ADME_rCYP2C6: NovaScreen (NVS) CYP450-related Enzyme Activity (ADME) Assay for rat CYP2C6 (AID 2283120)
Protocol: NVS_ADME_rCYP2C6 is a biochemical, single-readout assay that uses extracted gene-proteins in a cell-free assay. Measurements were taken 1 hour after chemical dosing in a 96-well plate.NVS_ADME_rCYP2C6 is one of one assay component(s) measured or calculated from the NVS_ADME_rCYP2C6 assay. […] This assay endpoint, NVS_ADME_rCYP2C6, was analyzed in the positive analysis fitting direction relative to Acetonitrile as the negative control and baseline of activity. […]
Active and inactive are the calls of the source. Rule for the calls: active = hit-call score of the fitted dose curve at least 0.9, where 1 is the maximum; inconclusive = response in the unintended direction; inactive = score below 0.9.
value_type: AC50

Report AC50, nothing else, for this compound: "CNC(=O)CSP(=S)(OC)OC"
4.77 µM (active)

For the compound "Oc1ccc(Cl)cc1Cc1ccccc1" , report AC50.
5.19 µM (active)

For "CCCN(CCOc1c(Cl)cc(Cl)cc1Cl)C(=O)n1ccnc1" , write its AC50.
0.166 µM (active)

Fill in AC50 for record "CCOCN(C(=O)CCl)c1c(C)cccc1CC"
10 µM (active)

Report AC50 for "COP(=S)(OC)Oc1ccc(SC)c(C)c1"
1.83 µM (active)

Look up AC50 of "COc1nn(CSP(=S)(OC)OC)c(=O)s1" and report it.
0.258 µM (active)

====

Assay: ATG_CMV_CIS: Attagene CIS-FACTORIAL HepG2 Assay for human CMV (Internal Marker) (AID 2282928);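 note: endpoint acts as a background internal control marker rather than a target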
Conditions: HepG2 CMV promoter reporter, transcription factor profiling; actives raise or lower the signal
Activity calls are given as the source filed them. Rule for the calls: active = hit-call score of the fitted dose curve at least 0.9, where 1 is the maximum; inactive = score below 0.9.
value_type: outcome

These solved cases illustrate the format of a correct answer.
- molecule: "CC1(c2ccc(Oc3ccccc3)cc2)OC(=O)N(Nc2ccccc2)C1=O (stereo not drawn)"
  outcome: "inactive"
- molecule: "O=C(O)CCCOc1ccc(Cl)cc1Cl"
  outcome: "inactive"
- molecule: "N#Cc1c(Cl)c(Cl)c(Cl)c(C#N)c1Cl"
  outcome: "inactive"
- molecule: "O=[N+]([O-])c1c(Cl)c(Cl)c(Cl)c(Cl)c1Cl"
  outcome: "inactive"
- molecule: "CCOCN(C(=O)CCl)c1c(C)cccc1CC"
  outcome: "inactive"
- molecule: "CC(C)(C)C(O)C(Oc1ccc(Cl)cc1)n1cncn1 (stereo not drawn)"
  outcome: "inactive"
- molecule: "O=C(O)C(F)(F)C(F)(F)C(F)(F)C(F)(F)C(F)(F)C(F)(F)C(F)(F)F"
  outcome: "inactive"

Continue with the molecule presented below.
Quick one: give measured outcome for "C#CCN1C(=O)COc2cc(F)c(N3C(=O)C4=C(CCCC4)C3=O)cc21"
inactive

====

Experiment: IUF_NPC1b_proliferation_BrdU_72hr: Leibniz Research Institute for Environmental Medicine (IUF) 72-hour Neural Progenitor Cell Bromodeoxyuridine (BrdU) Proliferation Assay (NPC1b) (AID 2284207)
Calls of active or inactive are those of the source. The calls were made as follows: active = hit-call score of the fitted dose curve at least 0.9, where 1 is the maximum; inactive = score below 0.9.
Tick one outcome: 1 = active, -1 = inactive

I would be grateful if you could indicate the recorded call for "O=C(O)COc1ccc(Cl)cc1Cl" .
1

Recorded test outcome, item CC[C@H](C)[C@H]1O[C@]2(C=C[C@@H]1C)C[C@@H]1C[C@@H](C/C=C(\C)[C@@H](O[C@H]3C[C@H](OC)[C@@H](O[C@H]4C[C@H](OC)[C@@H](O)[C@H](C)O4)[C@H](C)O3)[C@@H](C)/C=C/C=C3\CO[C@@H]4[C@H](O)C(C)=C[C@@H](C(=O)O1)[C@]34O)O2 (tested in a mixture with another compound)
1

Hi, sorry to bother you, what did the test record for O=S1OCC2C(CO1)C1(Cl)C(Cl)=C(Cl)C2(Cl)C1(Cl)Cl (stereo not drawn) ?
-1

====

Read-out: matrix metalloproteinase-10 (MMP10), MMP10 (gene 4319)
Experiment: LTEA_HepaRG_MMP10: Life Technologies and Expression Analysis (LTEA) Assay for matrix metalloproteinase-10 (MMP10) using HepaRG (AID 2283517)
Conditions: mRNA level, 48 h; actives raise or lower the signal
Activity calls are given as the source filed them. The calls were made as follows: active = hit-call score of the fitted dose curve at least 0.9, where 1 is the maximum; inactive = score below 0.9.
Hi! Could you answer with just one of these? active, inactive

Status in this test for "CCOCN(C(=O)CCl)c1c(C)cccc1CC" ?
inactive

Tell me the recorded outcome of this test for "O=C(Nc1ccccc1)Nc1cnns1" .
inactive

Entry "O=[N+]([O-])c1c(Cl)c(Cl)c(Cl)c(Cl)c1Cl" : call = ?
inactive

# outcome recorded in this test, key = "CCc1ccc(C(=O)NN(C(=O)c2cc(C)cc(C)c2)C(C)(C)C)cc1"
inactive

Per the records of this test, what outcome belongs to "COP(=S)(OC)Oc1ccc(SC)c(C)c1" ?
inactive

Call for entry "Clc1ccccc1-c1nnc(-c2ccccc2Cl)nn1" :
inactive

How was O=C(NC(=O)c1c(F)cccc1F)Nc1ccc(OC(F)(F)C(F)OC(F)(F)F)c(Cl)c1 (stereo unspecified) classified in this test?
inactive

Outcome logged for "O=C(O)C(F)(F)C(F)(F)C(F)(F)C(F)(F)C(F)(F)C(F)(F)C(F)(F)F" in this assay:
inactive

Write down the call the test reported for this molecule. Item: CC(C)(C)C(O)/C(=C\c1ccc(Cl)cc1Cl)n1cncn1 (stereo unspecified)
inactive

Returns: the outcome recorded for "COP(=O)(OC)OC=C(Cl)Cl" in this assay.
inactive

Dear all, I need the recorded test outcome for "CN1CSC(=S)N(C)C1" , thank you.
inactive

Hi, do you know how "Cc1[nH]c(=O)n(C(C)(C)C)c(=O)c1Cl" came out in this test?
inactive

Dear colleague, could you share the recorded outcome for "CCCN(CCOc1c(Cl)cc(Cl)cc1Cl)C(=O)n1ccnc1" when you have a moment?
active

What call does the record list for CC(C)(C)C(O)C(Oc1ccc(Cl)cc1)n1cncn1 (stereo unspecified) ?
inactive

What outcome does the record of this test show for ClC1C(Cl)C(Cl)C(Cl)C(Cl)C1Cl (stereo unspecified) ?
inactive

Field: outcome | Entry: "N#CN"
inactive

Tell me the assay call for "CCC(C)(C)C(=O)OC1=C(c2ccc(Cl)cc2Cl)C(=O)OC12CCCCC2" please.
inactive

Record lookup: outcome of this test for "CNC(=O)Oc1ccccc1OC(C)C" ?
inactive

Status in this test for O=S1OCC2C(CO1)C1(Cl)C(Cl)=C(Cl)C2(Cl)C1(Cl)Cl (stereo unspecified) ?
inactive

// outcome(item) with item = "O=[N+]([O-])/N=C1\NCCN1Cc1ccc(Cl)nc1"
inactive

What did this assay record as the result for "O=C1c2ccccc2C(=O)N1SC(Cl)(Cl)Cl" ?
inactive

Name the outcome recorded for "CNC(=O)Oc1cccc(N=CN(C)C)c1" in the assay.
inactive

Test call for this molecule, please: CCOC1Oc2ccc(OS(C)(=O)=O)cc2C1(C)C (stereo unspecified)
inactive

Short answer needed: outcome of this test for "CC(C)N(C(=O)COc1nnc(C(F)(F)F)s1)c1ccc(F)cc1" ?
inactive

Tell me the assay call for "CNC(=O)CSP(=S)(OC)OC" please.
inactive

What call does the record list for CCC(C)Nc1c([N+](=O)[O-])cc(C(C)(C)C)cc1[N+](=O)[O-] (stereo unspecified) ?
inactive
